Exercise: state measured pKi for each of the compounds provided.
- assayDetails: Displacement of 2-[125I]iodomelatonin from human MT2 receptor expressed in […] NIH3T3 cells after 90 mins
- Type: cell-based
Simply state the number, no unit and no words.

Ask: Give the measured pKi of CCC(=O)N[C@@H]1Cc2c(OC)cccc2[C@H](c2ccccc2)C1 (racemic) .
Result: 10.22

Ask: Bench note: what pKi did CCC(=O)N[C@@H]1Cc2c(Br)cccc2[C@H](c2ccccc2)C1 (racemic) show?
Result: 10.85

Ask: I'd like to know its pKi. The compound in question is CCC(=O)N[C@H]1Cc2c(OC)cccc2[C@H](c2ccccc2)C1 (racemic)
Result: 9.71

Ask: If you can, please state the reported pKi value of CCC(=O)N[C@@H]1Cc2ccccc2[C@H](c2ccccc2)C1 (racemic) .
Result: 9.16

Ask: Look at this compound and give its reported pKi. CCC(=O)NCC1=Cc2ccccc2C(c2ccccc2)C1 (racemic)
Result: 8.46

// data source = ChEMBL document CHEMBL1944504
